measurement.target: Nonstructural protein 1 (Influenza A virus, UniProt Q194T2)
Sequence (Q194T2 whole entry): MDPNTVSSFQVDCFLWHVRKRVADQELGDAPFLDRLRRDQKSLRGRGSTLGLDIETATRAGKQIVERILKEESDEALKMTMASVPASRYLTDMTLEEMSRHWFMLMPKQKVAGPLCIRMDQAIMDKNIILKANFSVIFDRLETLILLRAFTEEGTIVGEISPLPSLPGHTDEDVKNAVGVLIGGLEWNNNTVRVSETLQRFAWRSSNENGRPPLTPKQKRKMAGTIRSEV
Assay type: functional, Influenza A virus (A/California/07/2009(H1N1))
The source made the active and inactive calls.
Task for the reader: assign each of the following compounds its reported IC50.

Take each entry in turn and give its IC50.
1. CCOC(=O)C1=C(Cc2ccc(OC)cc2)C(=O)c2ccccc2C1=O
2. Nc1c(Cl)ncnc1N/N=C/c1ccc2ccccc2n1
3. CCN1CCCC1CNC(=O)c1ccc2c(c1)NC(=O)/C(=C\c1ccc(OC)c(OC)c1)S2 (configuration not stated)
4. CNc1cccc2c1C(=O)c1ccccc1C2=O
5. O=[N+]([O-])c1ccc(O)c(/C=N/Nc2nc3ccccc3[nH]2)c1
6. CCC(C)C(=O)N1c2ccccc2C(=C2SC(C(=O)OC)=C(C(=O)OC)S2)C(=S)C1(C)C (configuration not stated)
7. CN(C)c1ccc(/C=C/c2ccc3c4ccccc4ccc3[n+]2-c2ccccc2)cc1

["42.9 µM (active)", "8.42 µM (active)", "81.9 µM (active)", "8.18 µM (active)", "10.3 µM (active)", "17.7 µM (active)", "2.36 µM (active)"]

---

measurement.target: Metabotropic glutamate receptor 3 (Rattus norvegicus, UniProt P31422)
Sequence (P31422 whole entry): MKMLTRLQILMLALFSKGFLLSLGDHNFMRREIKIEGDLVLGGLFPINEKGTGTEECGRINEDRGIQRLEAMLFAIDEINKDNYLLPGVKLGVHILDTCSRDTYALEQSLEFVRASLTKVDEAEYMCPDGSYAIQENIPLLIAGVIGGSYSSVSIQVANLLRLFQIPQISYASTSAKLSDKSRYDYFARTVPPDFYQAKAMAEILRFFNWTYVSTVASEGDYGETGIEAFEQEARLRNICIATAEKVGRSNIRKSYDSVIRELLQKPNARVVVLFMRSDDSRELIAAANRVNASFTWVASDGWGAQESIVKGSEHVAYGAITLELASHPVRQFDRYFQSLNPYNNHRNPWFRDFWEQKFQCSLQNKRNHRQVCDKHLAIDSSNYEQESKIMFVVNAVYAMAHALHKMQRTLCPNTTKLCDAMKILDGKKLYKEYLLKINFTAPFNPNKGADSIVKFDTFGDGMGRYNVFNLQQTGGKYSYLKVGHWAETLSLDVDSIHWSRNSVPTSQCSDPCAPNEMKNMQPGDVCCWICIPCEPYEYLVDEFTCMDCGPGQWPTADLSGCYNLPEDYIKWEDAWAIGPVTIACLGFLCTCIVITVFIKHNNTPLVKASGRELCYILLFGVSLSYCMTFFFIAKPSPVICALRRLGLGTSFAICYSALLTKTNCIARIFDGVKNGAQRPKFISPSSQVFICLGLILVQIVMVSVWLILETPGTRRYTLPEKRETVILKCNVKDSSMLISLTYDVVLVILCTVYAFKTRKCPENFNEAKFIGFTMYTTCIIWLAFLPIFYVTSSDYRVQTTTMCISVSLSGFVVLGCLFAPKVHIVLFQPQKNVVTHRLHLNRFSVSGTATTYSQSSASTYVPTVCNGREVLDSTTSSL
test.description: inhibitors of rat mGlu3 Galpha15 signaling – TREx293 cells, calcium flux, mGlu3 NAM project, dose response (AID 651840)
observed.property: IC50 (nM)
Answers are plain numbers, in nM.

Returns the measured IC50 for the input molecule. Input: CCCCC1(O)CCCN(C(=O)c2ccc(C#Cc3ccc(OC)cc3)cc2)C1 (stereo unspecified) 2920

---

measurement.target: Cytochrome P450 3A4 (Homo sapiens);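 further: confirmatory qHTS run detecting inhibitors and substrates of CYP3A4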
Sequence (P08684 whole entry): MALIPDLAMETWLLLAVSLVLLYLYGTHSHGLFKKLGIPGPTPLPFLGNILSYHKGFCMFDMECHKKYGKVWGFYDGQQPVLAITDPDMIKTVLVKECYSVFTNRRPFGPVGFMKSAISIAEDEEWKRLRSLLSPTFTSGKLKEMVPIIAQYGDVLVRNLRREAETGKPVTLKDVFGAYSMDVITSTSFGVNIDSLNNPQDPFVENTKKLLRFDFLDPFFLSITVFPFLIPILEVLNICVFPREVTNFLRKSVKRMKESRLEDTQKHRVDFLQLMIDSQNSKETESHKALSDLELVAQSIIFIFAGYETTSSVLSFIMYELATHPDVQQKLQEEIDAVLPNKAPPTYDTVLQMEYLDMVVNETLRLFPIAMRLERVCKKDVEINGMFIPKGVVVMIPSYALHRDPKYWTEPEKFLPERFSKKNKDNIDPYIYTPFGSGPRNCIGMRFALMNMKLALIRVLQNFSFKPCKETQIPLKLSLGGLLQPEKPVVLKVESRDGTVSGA
particulars: Potency
observed.property: AC50

Some solved entries appear below for comparison.
compound	AC50
O=c1c(O)c(-c2ccccc2)oc2cc(O)ccc12 [3,7-DIHYDROXYFLAVONE]	39.8 µM (inconclusive)
CC(C)C1=CC2=CCC3[C@@](C)(CCC[C@@]3(C)C(=O)O)C2CC1 (some centres undefined)	39.8 µM (inconclusive)
CC(=O)NCCc1c[nH]c2ccc(O)cc12	25.1 µM (inconclusive)

Returns the measured AC50 for the input compound. Input: COC(=O)c1cccc(C#CC(NP(=O)(c2ccccc2)c2ccccc2)c2ccccc2)c1 (centres undefined) 12.6 µM (inconclusive)

---

UniProt P11712 data, read-out AC50
Sequence (P11712 whole entry): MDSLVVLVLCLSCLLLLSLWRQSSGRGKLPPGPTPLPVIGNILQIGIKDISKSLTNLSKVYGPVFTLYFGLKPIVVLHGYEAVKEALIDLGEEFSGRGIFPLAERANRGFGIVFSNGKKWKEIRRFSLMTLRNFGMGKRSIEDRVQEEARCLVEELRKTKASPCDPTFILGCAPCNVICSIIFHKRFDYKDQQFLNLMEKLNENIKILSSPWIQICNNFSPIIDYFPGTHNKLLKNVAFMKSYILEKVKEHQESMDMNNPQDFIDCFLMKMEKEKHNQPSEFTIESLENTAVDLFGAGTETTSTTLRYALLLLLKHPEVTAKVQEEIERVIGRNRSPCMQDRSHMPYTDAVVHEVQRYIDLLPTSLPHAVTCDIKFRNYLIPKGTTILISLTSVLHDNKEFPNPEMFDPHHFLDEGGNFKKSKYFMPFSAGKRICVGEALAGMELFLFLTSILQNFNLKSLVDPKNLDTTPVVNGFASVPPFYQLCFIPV

compound	measurement.target	observed.property	value.observed
COc1cccc(Nc2ncc3nc(-c4ccccc4)c(=O)n(C4CC4)c3n2)c1	UniProt P11712	AC50	10 µM (inconclusive)
CCCN(CCC)CCCNC(=O)C[S+]([O-])Cc1nc(-c2ccc(OC)c(OC)c2)oc1C (stereo not drawn)	UniProt P11712	AC50	39.8 µM (inconclusive)
O=P(Nc1c(Cl)cccc1Cl)(c1ccccc1)c1nc2c(s1)CCCC2 (stereo not drawn)	UniProt P11712	AC50	17.8 µM (inconclusive)

Take each entry in turn and give its AC50.
1. O=C(c1ccc(Oc2ccc(C(F)(F)F)cn2)cc1)N1CCN(c2ccccc2)CC1
2. CC(C)c1cccc2nc3c(c([Si](C)(C)C(C)(C)C)c12)Cn1c-3cccc1=O
3. CC1(C)CC(=O)C2=C(C1)N(c1ccc(F)cc1)C(N)=C(C#N)C2c1cccs1 (stereo not drawn)
4. CCCC(=O)Nc1ccc(N2CCN(CC)CC2)c(Cl)c1
5. CCOC(=O)N1CCN(C(=O)CNS(=O)(=O)c2cccs2)CC1

["25.1 µM (inconclusive)", "39.8 µM (inconclusive)", "10 µM (inconclusive)", "0.178 µM (inconclusive)", "3.98 µM (inconclusive)"]

---

Task for the reader: assign each of the following compounds its reported IC50.
measurement.target: Orexin/Hypocretin receptor type 1 (Homo sapiens);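 further: antagonism measured against Orexin-A challenge at about its EC80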
Sequence (O43613 whole entry): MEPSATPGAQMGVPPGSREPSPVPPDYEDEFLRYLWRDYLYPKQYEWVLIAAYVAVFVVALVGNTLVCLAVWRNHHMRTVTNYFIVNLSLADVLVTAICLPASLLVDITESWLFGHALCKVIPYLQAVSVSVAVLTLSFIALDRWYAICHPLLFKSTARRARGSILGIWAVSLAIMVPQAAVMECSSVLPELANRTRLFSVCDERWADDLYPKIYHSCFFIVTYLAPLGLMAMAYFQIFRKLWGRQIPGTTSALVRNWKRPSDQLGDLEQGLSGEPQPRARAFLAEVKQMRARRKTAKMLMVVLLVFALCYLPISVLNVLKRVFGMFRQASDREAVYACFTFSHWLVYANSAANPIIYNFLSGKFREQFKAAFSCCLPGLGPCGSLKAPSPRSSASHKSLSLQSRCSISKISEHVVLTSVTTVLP
test.description: Homogeneous Time Resolved Fluorescence (HTRF)-based cell-based high throughput dose response assay for antagonists of the orexin 1 receptor (OX1R; HCRTR1). [Related pubchem assays (depositor defined):AID434989, AID435008, AID463079, AID485270, AID492963, AID492964, AID492965, AID493232, AID504717, AID504718]
Format: functional
Active and inactive are the calls of the source.

Some solved entries appear below for comparison.
Cc1cc(C)n2nc(-c3cccc(Br)c3)cc2n1 2050 nM (active)
Cc1noc(C)c1COC(=O)c1ccc2c(c1)S(=O)(=O)c1ccccc1C2=O 1200 nM (active)
CC(=C/c1ccccc1)/C=C1/SC(N2CCOCC2)=NC1=O 510 nM (active)

Next up:
Returns the measured IC50 for the input compound. Input: Nn1c(-c2cccs2)nc2sc3c(c2c1=O)CCCC3 2980 nM (active)

---

Calls of active or inactive are those of the source.
Glyceraldehyde-3-phosphate dehydrogenase (Homo sapiens) data, read-out IC50
Sequence (P04406 whole entry): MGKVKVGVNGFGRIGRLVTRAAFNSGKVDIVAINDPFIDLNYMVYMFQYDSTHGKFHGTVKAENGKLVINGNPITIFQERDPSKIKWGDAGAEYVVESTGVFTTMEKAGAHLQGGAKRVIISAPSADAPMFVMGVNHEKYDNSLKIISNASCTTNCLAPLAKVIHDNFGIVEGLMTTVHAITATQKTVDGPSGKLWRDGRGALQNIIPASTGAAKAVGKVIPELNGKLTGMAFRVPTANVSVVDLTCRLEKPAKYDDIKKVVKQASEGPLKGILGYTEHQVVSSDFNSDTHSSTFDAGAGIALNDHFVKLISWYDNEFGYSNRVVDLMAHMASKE

compound	observed.property	value.observed
Cc1onc(-c2ccccc2Cl)c1C(=O)Nc1ccc(S(N)(=O)=O)cc1	IC50	> 100 µM (not active)
COc1ccc(-c2[nH]nc(-c3ccccc3)c2-c2nc3ccccc3[nH]2)cc1	IC50	81.2 µM (active)
Cn1ncc2c1ncn1c(-c3ccccc3)nnc21	IC50	> 100 µM (not active)
O=C(O)C1Nc2cc(C(F)(F)F)ccc2S(=O)(=O)N1 (stereo not given)	IC50	> 100 µM (not active)

Next up:
Returns the measured IC50 for the input compound. Input: COc1ccccc1-c1nnc(SCC(=O)Nc2ccccc2[N+](=O)[O-])[nH]1 > 100 µM (not active)

---

Task for the reader: assign each of the following molecules its reported EC50.
System: Streptococcus
test.description: GAS UMAA2166 growth inhibition – luminescence, BacTiterGlo, counter-screen for streptokinase expression inhibitor project, dose response (AID 1915);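 further: potency for reduction of bacterial viability or growth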
Assay type: functional, organism-based
The source made the active and inactive calls.

Some solved entries appear below for comparison.
molecule	value.observed
COc1ccc(C2=NOC(CN=C(N)S)C2)cc1 (stereo not given)	10.9 µM (active)
CCc1noc(C)c1C(=O)OCC(=O)NC(=O)c1ccccc1	> 150 µM (not active)
CCn1nc(NC(=O)c2ccncc2)c2cc3cc(C)ccc3nc21	11.4 µM (active)
COc1ccc(S(=O)(=O)NCC2CCCN(Cc3ccc(OC)cc3F)C2)cc1 (stereo not given)	> 150 µM (not active)

Next up:
What reported EC50 corresponds to CS(=O)(=O)c1ccc([C@@H](O)[C@@H](CO)NC(=O)C(Cl)Cl)cc1 on Streptococcus? 4.55 µM (active)

---

Task for the reader: assign each of the following compounds its reported IC50.
measurement.target: Estrogen receptor beta (Homo sapiens)
Sequence (Q92731 whole entry): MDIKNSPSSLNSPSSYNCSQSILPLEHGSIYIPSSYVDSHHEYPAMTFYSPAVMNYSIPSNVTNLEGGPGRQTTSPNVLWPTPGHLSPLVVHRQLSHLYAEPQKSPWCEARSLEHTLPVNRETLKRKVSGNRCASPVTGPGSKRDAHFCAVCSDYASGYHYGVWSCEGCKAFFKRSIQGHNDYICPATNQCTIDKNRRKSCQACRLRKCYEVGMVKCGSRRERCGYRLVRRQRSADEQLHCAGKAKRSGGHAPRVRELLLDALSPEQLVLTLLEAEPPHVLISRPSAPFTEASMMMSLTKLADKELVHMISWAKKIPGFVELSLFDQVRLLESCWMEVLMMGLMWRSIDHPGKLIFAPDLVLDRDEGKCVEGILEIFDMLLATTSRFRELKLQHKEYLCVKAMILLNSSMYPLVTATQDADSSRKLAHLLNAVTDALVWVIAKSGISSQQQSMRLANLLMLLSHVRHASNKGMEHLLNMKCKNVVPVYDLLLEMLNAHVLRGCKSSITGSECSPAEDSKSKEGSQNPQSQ
test.description: blockers of SRC-3 recruitment to ERβ – biochemical, ELISA, streptavidin-HRP readout, orthogonal assay, confirmation (AID 1060)

Some solved entries appear below for comparison.
compound	value.observed
COc1ccc(-c2nnc(SC/C(O)=C(/C#N)C(C)=N)o2)cc1	350 nM (not active)
CCOc1ccc(C(=O)OCC(=O)NCc2ccco2)cc1OCC	113 nM (not active)
Cc1cc(Cl)ccc1OCC(=O)OC(C)C(=O)N(C)C (centres undefined)	< 23 nM (not active)

Returns the measured IC50 for the input compound. Input: Nc1c(C(=O)NCc2ccco2)sc2nc3c(cc12)C(=O)CCC3 6250 nM (not active)

---

test.description: cells
Type: functional
Activity calls are given as the source filed them.
Task for the reader: assign each of the following compounds its reported IC50.

O=C1/C(=C/c2ccccn2)COc2ccccc21 20.9 µM (active)

Take each entry in turn and give its IC50.
1. COc1cc(CNC2CCCC2)cc(Cl)c1OCc1ccccc1Cl
2. O=C(NC(=S)N1CCc2ccccc21)c1ccccc1
3. CCCNC(=O)NC(=O)COc1ccc(-c2ccc(C#N)cc2)cc1

1: 16.8 µM (active); 2: 9.86 µM (active); 3: 1.12 µM (active)

Returns the measured IC50 for the input compound. Input: Cc1cc(OCC(=O)Nc2ccncc2)ccc1Br > 50 µM (active)

---

Task for the reader: assign each of the following compounds its reported IC50.
measurement.target: Rac GTPase-activating protein 1 (Homo sapiens, UniProt Q9H0H5)
Sequence (Q9H0H5 whole entry): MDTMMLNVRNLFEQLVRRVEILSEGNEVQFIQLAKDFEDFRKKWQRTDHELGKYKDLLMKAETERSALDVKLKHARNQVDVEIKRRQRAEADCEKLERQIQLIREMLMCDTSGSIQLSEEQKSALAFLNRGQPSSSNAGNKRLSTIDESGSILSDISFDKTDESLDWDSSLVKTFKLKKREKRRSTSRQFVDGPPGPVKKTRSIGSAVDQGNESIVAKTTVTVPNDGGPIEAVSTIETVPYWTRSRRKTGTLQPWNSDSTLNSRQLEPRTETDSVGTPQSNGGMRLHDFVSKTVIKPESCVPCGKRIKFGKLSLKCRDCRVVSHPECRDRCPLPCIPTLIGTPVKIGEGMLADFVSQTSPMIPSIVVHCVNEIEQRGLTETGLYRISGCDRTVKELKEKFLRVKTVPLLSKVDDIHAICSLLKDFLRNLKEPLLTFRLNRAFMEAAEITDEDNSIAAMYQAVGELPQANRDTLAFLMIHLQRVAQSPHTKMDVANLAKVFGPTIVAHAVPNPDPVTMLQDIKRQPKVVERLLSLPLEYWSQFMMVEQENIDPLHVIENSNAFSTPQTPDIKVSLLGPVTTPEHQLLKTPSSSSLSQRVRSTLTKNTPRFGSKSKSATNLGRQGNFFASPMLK
test.description: blockers of MgcRacGAP-driven Rac1 GTP hydrolysis – biochemical, ADP Hunter fluorescence, primary and confirmatory, confirmation (AID 624330)
Assay type: functional
Activity calls are given as the source filed them.

Some solved entries appear below for comparison.
compound	measurement.target	value.observed
Cc1ccc(/C=N/Nc2ccc(Cl)c(C(=O)O)c2)s1	Rac GTPase-activating protein 1 (Homo sapiens, UniProt Q9H0H5)	80.5 µM (active)
CC1CC(C)CN(CC(=O)NC(c2ccccc2)c2ccccc2)C1 (stereo not drawn)	Rac GTPase-activating protein 1 (Homo sapiens, UniProt Q9H0H5)	231 µM (active)
Oc1ccc(/C=N/Nc2nccnc2Cl)cc1	Rac GTPase-activating protein 1 (Homo sapiens, UniProt Q9H0H5)	16.3 µM (active)
CC(C)c1ccc(CNc2ccc(N3CCOCC3)cc2)cc1	Rac GTPase-activating protein 1 (Homo sapiens, UniProt Q9H0H5)	12.4 µM (active)
CN(C)c1ccc(NC(=O)c2sc(SCC(=O)Nc3nccs3)nc2N)cc1	Rac GTPase-activating protein 1 (Homo sapiens, UniProt Q9H0H5)	107 µM (active)

Take each entry in turn and give its IC50.
1. COc1ccc(-n2sc3ccccc3c2=O)cc1
2. CCOC(=O)c1[nH]c2ccc(OC)cc2c1NC(=O)c1ccccc1C(=O)O
3. COC(=O)CC1SC(=O)NC1=Nc1ccc(O)cc1 (stereo not drawn)
4. C#CCOc1ccccc1CNC1CCN(Cc2ccccc2)CC1
5. COC(=O)c1cccc(-n2sc3ccccc3c2=O)c1
6. CCn1c(S)nc2c(=O)n(C)c(=O)n(C)c21

34.5 µM (active)
109 µM (active)
52.9 µM (active)
64.9 µM (active)
36.9 µM (active)
21.1 µM (active)

Take each entry in turn and give its IC50.
1. COc1ccc(N2CCN(c3ccc(C(N)=O)cc3[N+](=O)[O-])CC2)cc1
2. COc1cc(/C=N/NC(=O)c2cccc([N+](=O)[O-])c2)ccc1O
3. Oc1ccc(-c2csc(Nc3ncccn3)n2)cc1
4. Oc1ccc(-c2csc(Nc3ccccn3)n2)c(O)c1

1: 158 µM (active); 2: 29 µM (active); 3: 21.4 µM (active); 4: 59.5 µM (active)
